test system: HCC-2998 colon; test: NCI tumour cell line growth inhibition, 48 h
quantity-kind: TGI

Previously resolved entries follow.
>  <compound>
C=C1C(=O)C23CC1CCC2C12CO[C@@H]4OCC(C)(CC[C@@H]1OC3=O)C42 (stereo partly drawn)

>  <TGI>
30.9 µM

$$$$
>  <compound>
CC1(C)CCc2c(c3c(c4c(=O)c(O)c(-c5ccc(O)cc5)oc24)OC(C)(C)CC3)O1

>  <TGI>
> 100 µM

$$$$
>  <compound>
Cc1cc(N(CCC#N)CCC#N)ccc1/C(N=Nc1ccc(Cl)cc1)=N\NC(=O)c1ccccc1

>  <TGI>
> 100 µM

$$$$

Please look at the following compound next.
Note down TGI recorded for Oc1cccc2c(Cl)ccnc12
14.9 µM

###

system: SF-539 CNS; test: NCI tumour cell line growth inhibition, 48 h
quantity-kind: TGI

>  <compound>
COC1CCC2C(NS(=O)(=O)c3ccc(C)cc3)CCCC2O1 (stereo not given) (tested in a mixture with another compound)

>  <assay-value>
> 34.5 µM

$$$$
>  <compound>
COc1ccc(N2C(=O)C3c4[nH]c5ccccc5c4C4CCC(C(C)(C)C)CC4C3C2=O)c(C)c1 (stereo not given)

>  <assay-value>
> 100 µM

$$$$
>  <compound>
C=C(CN1CCN(c2ccc(Cl)cc2F)CC1)c1ccc(C(=O)Nc2ccccc2N)cc1

>  <assay-value>
> 52.8 µM

$$$$
>  <compound>
CN(C)C(=N)c1ccccc1

>  <assay-value>
> 100 µM

$$$$
>  <compound>
NC(=O)C(c1ccccc1)N1OC2C(=O)N(c3ccccc3)C(=O)C2C1c1c2ccccc2c(Cl)c2ccccc12 (stereo not given)

>  <assay-value>
> 100 µM

$$$$

Please look at the following compound next.
Provide the reported TGI (system: SF-539 CNS) for O=C1C2C(C(=O)N1OS(=O)(=O)c1ccccc1)N(Cc1ccccc1)C(=O)N2Cc1ccccc1 (stereo not given)
> 100 µM

###

test system: HCT-116 colon; assay: NCI tumour cell line growth inhibition, 48 h
quantity-kind: TGI

Previously resolved entries follow.
>  <compound>
Cn1cnc([N+](=O)[O-])c1Sc1nnc(-c2cccnc2)n1C

>  <assay-value>
40.1 µM

$$$$
>  <compound>
COC(=O)C1CCC(=O)N1C(c1ccccc1)c1ccc(OC)c(OC)c1 (stereo not drawn)

>  <assay-value>
> 100 µM

$$$$

Note down TGI recorded for Oc1cccc2c(Cl)ccnc12
15.2 µM

Note down TGI recorded for C/C(CC(=O)CCC(=O)Nc1cccc(C(F)(F)F)c1)=N\NC(=O)NN
> 100 µM

Note down TGI recorded for CSc1nc2c(c(=O)[nH]1)N=C1c3ccccc3C(=O)C1C(c1ccccc1)N2 (stereo not drawn)
> 100 µM

Note down TGI recorded for COc1ccc2c(=O)c(O)c(-c3ccc(OC)c(OC)c3)oc2c1
> 100 µM

Note down TGI recorded for Cc1nc2ccccc2c(N)c1-c1cc(C)c2c(C)nc3ccccc3c2n1
0.728 µM

Note down TGI recorded for COc1ccc(-c2nc3sccn3c2/C(N)=N/C(=N)N)cc1OC
45.2 µM

###

test system: HL-60(TB) leukemia; test: NCI tumour cell line growth inhibition, 48 h
Recorded TGI values for a group of molecules are listed next.

Provide the reported TGI (system: HL-60(TB) leukemia) for CN1C(=O)C(C)(C)C2(SC(C)(C)C2(C)C)N(C)C1=S (stereo not given)
> 100 µM

The reported numbers originate from PubChem BioAssay (NCI).
